Numbers sourced from the supplement of paper PMC9233669.

# Tested on: biotinyl-Ile-oxazolone
# method: self-aminoacylation, catalytic enhancement (BIO) (fold over background); higher = more active; k-Seq, kA / k0A0; sequences stand for … in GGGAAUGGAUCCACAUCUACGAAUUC…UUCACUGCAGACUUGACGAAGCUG
Fewer inactive variants are shown than the library holds.
Class membership depends on self-aminoacylation alone; the intervals are band 1 = under 2, band 2 = from 2 up to 3, band 3 = 3 and over

[
  {
    "monomer-sequence": "CCACAAUUCAAGCAAUCGGGC [Fam1B.1 aminoacylation ribozyme variant]",
    "measurement-target": "biotinyl-Ile-oxazolone",
    "discrete-label": "band 2"
  },
  {
    "monomer-sequence": "AUUUCCCUGGACAUCGAGUGA [Fam2.1 aminoacylation ribozyme variant]",
    "measurement-target": "biotinyl-Ile-oxazolone",
    "discrete-label": "band 2"
  },
  {
    "monomer-sequence": "AUUCACCUAGGCCAGCGGGUG [Fam2.2 aminoacylation ribozyme variant]",
    "measurement-target": "biotinyl-Ile-oxazolone",
    "discrete-label": "band 3"
  },
  {
    "monomer-sequence": "CCACACUUCGAGCCAUCGGUC [Fam1B.1 aminoacylation ribozyme variant]",
    "measurement-target": "biotinyl-Ile-oxazolone",
    "discrete-label": "band 1"
  },
  {
    "monomer-sequence": "AUUACCCUGAUCAUCUAGUGA [Fam2.1 aminoacylation ribozyme variant]",
    "measurement-target": "biotinyl-Ile-oxazolone",
    "discrete-label": "band 3"
  },
  {
    "monomer-sequence": "AUUACCCUGGUCUUCAAGUGA [Fam2.1 aminoacylation ribozyme variant]",
    "measurement-target": "biotinyl-Ile-oxazolone",
    "discrete-label": "band 2"
  },
  {
    "monomer-sequence": "CUACUUCAUACAAUCUGUCUG [Fam1A.1 aminoacylation ribozyme variant]",
    "measurement-target": "biotinyl-Ile-oxazolone",
    "discrete-label": "band 1"
  },
  {
    "monomer-sequence": "AUUCACCUAGCUCAUCGGGUA [Fam2.2 aminoacylation ribozyme variant]",
    "measurement-target": "biotinyl-Ile-oxazolone",
    "discrete-label": "band 2"
  },
  {
    "monomer-sequence": "AUUCACCUAGUUCACCGGGUG [Fam2.2 aminoacylation ribozyme variant]",
    "measurement-target": "biotinyl-Ile-oxazolone",
    "discrete-label": "band 2"
  },
  {
    "monomer-sequence": "AAUUUUGCUAACAGUCGCAAG [Fam3.1 aminoacylation ribozyme variant]",
    "measurement-target": "biotinyl-Ile-oxazolone",
    "discrete-label": "band 1"
  },
  {
    "monomer-sequence": "CCGCACUGCAAGCAAUCGGUC [Fam1B.1 aminoacylation ribozyme variant]",
    "measurement-target": "biotinyl-Ile-oxazolone",
    "discrete-label": "band 1"
  },
  {
    "monomer-sequence": "AAGUUUGCUAUUAGUUGCAAG [Fam3.1 aminoacylation ribozyme variant]",
    "measurement-target": "biotinyl-Ile-oxazolone",
    "discrete-label": "band 1"
  },
  {
    "monomer-sequence": "ACGUUUGUUAAUAGUCGCAAG [Fam3.1 aminoacylation ribozyme variant]",
    "measurement-target": "biotinyl-Ile-oxazolone",
    "discrete-label": "band 1"
  },
  {
    "monomer-sequence": "AUUAACCUAGGUCAUCGAGUG [Fam2.2 aminoacylation ribozyme variant]",
    "measurement-target": "biotinyl-Ile-oxazolone",
    "discrete-label": "band 3"
  },
  {
    "monomer-sequence": "AAGGUUGGUAAUAGUCGCAAG [Fam3.1 aminoacylation ribozyme variant]",
    "measurement-target": "biotinyl-Ile-oxazolone",
    "discrete-label": "band 1"
  },
  {
    "monomer-sequence": "AUUCACCUGGGUGAUCGGGUG [Fam2.2 aminoacylation ribozyme variant]",
    "measurement-target": "biotinyl-Ile-oxazolone",
    "discrete-label": "band 3"
  }
]
